# System: 695427-040-R-J1-PDC complex spheroid viability;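 further: spheroids exposed to compounds for seven days; 100% = DMSO vehicle control viability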
# assay-remarks: Anticancer human tumor 695427-040-R-J1-PDC patient-derived colon adenocarcinoma cell line growth inhibition [POLQ]
# recorded-conditions: second compound 3.16 µM; first compound 3.16 µM; hits give low values
parameter-measured: viability, T/C

[[record]]
molecule = "CCCS(=O)(=O)Nc1ccc(F)c(C(=O)c2c[nH]c3ncc(-c4ccc(Cl)cc4)cc23)c1F + COC1C(OC(N)=O)C(O)C(Oc2ccc3c(O)c(NC(=O)c4ccc(O)c(CC=C(C)C)c4)c(=O)oc3c2C)OC1(C)C"
target_under_test = "695427-040-R-J1-PDC complex spheroid viability"
result = "109%"

[[record]]
molecule = "CC1COCCN1c1cc(C2(O)CC3CCC(C2)O3)c2cnn(-c3ccn[nH]3)c2n1 (stereo not given) + COC1C(OC(N)=O)C(O)C(Oc2ccc3c(O)c(NC(=O)c4ccc(O)c(CC=C(C)C)c4)c(=O)oc3c2C)OC1(C)C"
target_under_test = "695427-040-R-J1-PDC complex spheroid viability"
result = "52.4%"

[[record]]
molecule = "CC(C)n1c(=O)n(C)c2cnc3cc(F)c(-c4ccc(OCCCN5CCCCC5)nc4)cc3c21 + Nc1ccc(C#CCN(C(=O)Cc2ncc(C(F)(F)F)cc2C(F)(F)F)c2ccc(F)cc2)nn1"
target_under_test = "695427-040-R-J1-PDC complex spheroid viability"
result = "96%"

[[record]]
molecule = "O=C(c1cc(Cc2n[nH]c(=O)c3ccccc23)ccc1F)N1CCN(C(=O)C2CC2)CC1 + Nc1ccc(C#CCN(C(=O)Cc2ncc(C(F)(F)F)cc2C(F)(F)F)c2ccc(F)cc2)nn1"
target_under_test = "695427-040-R-J1-PDC complex spheroid viability"
result = "117%"

[[record]]
molecule = "CC1COCCN1c1cc(C2(S(C)(=N)=O)CC2)nc(-c2ccnc3[nH]ccc23)n1 (stereo not given) + Nc1ccc(C#CCN(C(=O)Cc2ncc(C(F)(F)F)cc2C(F)(F)F)c2ccc(F)cc2)nn1"
target_under_test = "695427-040-R-J1-PDC complex spheroid viability"
result = "95.4%"

[[record]]
molecule = "CCc1cc2c(N3CCc4c(cc(Cn5ccnc5)cc4-c4cn(C)nc4C(F)(F)F)C3=O)cc(C)nc2c(OC)n1 + Nc1ccc(C#CCN(C(=O)Cc2ncc(C(F)(F)F)cc2C(F)(F)F)c2ccc(F)cc2)nn1"
target_under_test = "695427-040-R-J1-PDC complex spheroid viability"
result = "103%"

[[record]]
molecule = "CCc1cc2c(N3CCc4c(cc(Cn5ccnc5)cc4-c4cn(C)nc4C(F)(F)F)C3=O)cc(C)nc2c(OC)n1 + COC1C(OC(N)=O)C(O)C(Oc2ccc3c(O)c(NC(=O)c4ccc(O)c(CC=C(C)C)c4)c(=O)oc3c2C)OC1(C)C"
target_under_test = "695427-040-R-J1-PDC complex spheroid viability"
result = "115%"

[[record]]
molecule = "CCc1cc2c(N3CCc4c(cc(Cn5ccnc5)cc4-c4cn(C)nc4C(F)(F)F)C3=O)ccnc2c(OC)n1 + Cc1cccc(N(C)C(=O)C2C(O)CCN2c2nc(C)cc(C(F)(F)F)c2C#N)c1"
target_under_test = "695427-040-R-J1-PDC complex spheroid viability"
result = "99.8%"

[[record]]
molecule = "CC1COCCN1c1cc(-c2ccnn2C)c2ccnc(-c3ccn[nH]3)c2n1 (stereo not given) + COC1C(OC(N)=O)C(O)C(Oc2ccc3c(O)c(NC(=O)c4ccc(O)c(CC=C(C)C)c4)c(=O)oc3c2C)OC1(C)C"
target_under_test = "695427-040-R-J1-PDC complex spheroid viability"
result = "47.6%"

[[record]]
molecule = "O=C(c1cc(Cc2n[nH]c(=O)c3ccccc23)ccc1F)N1CCN(C(=O)C2CC2)CC1 + COC1C(OC(N)=O)C(O)C(Oc2ccc3c(O)c(NC(=O)c4ccc(O)c(CC=C(C)C)c4)c(=O)oc3c2C)OC1(C)C"
target_under_test = "695427-040-R-J1-PDC complex spheroid viability"
result = "117%"

